So I've got a bunch of compounds here, and I need their Na values.
- Species: Rattus norvegicus
- TEST_METHOD_NOTES: Open TG-GATES - Regimen: Daily Repeat
- Type: toxicity, organism-based, Sprague-Dawley
- Set-up: regimen Daily Repeat, gender Male, age 6 weeks
- MEASUREMENT_CONDITIONS: in vivo, po, 100 mg/kg, […], tissue Plasma, route gavage, dose level Low, time 14 day

Query string: Item CNC(=C[N+](=O)[O-])NCCSCc1ccc(CN(C)C)o1 has what recorded Na?
Result string: 142 meq/L

Query string: Item O=C(OC[C@H]1O[C@@H](OC(=O)c2cc(O)c(O)c(OC(=O)c3cc(O)c(O)c(O)c3)c2)[C@H](OC(=O)c2cc(O)c(O)c(OC(=O)c3cc(O)c(O)c(O)c3)c2)[C@@H](OC(=O)c2cc(O)c(O)c(OC(=O)c3cc(O)c(O)c(O)c3)c2)[C@@H]1OC(=O)c1cc(O)c(O)c(OC(=O)c2cc(O)c(O)c(O)c2)c1)c1cc(O)c(O)c(OC(=O)c2cc(O)c(O)c(O)c2)c1 has what recorded Na?
Result string: 140 meq/L
